Data origin: patent US20060257938A1

# Assay Protocol: Probe fluorescence ratio response to linolenic acid relative to ADIFAB2
# Type: binding
# Experimental Parameters: response relative to ADIFAB2
Recorded DR/DR LNA determines the group label, using low band = under 0.5, middle band = from 0.5 up to 0.9, high band = 0.9 and over

[
  {
    "Molecule": "18Q, 72A (protein, listed as Rattus norvegicus, PEPTIDE (1)...(131) wild-type rat intestinal fatty acid binding protein) AFDGTWKVDRNENYEKFQEKMGINVVKRKLGAHDNLKLTITQEGNKFTVKESSNFRNIDVVFELGVDFAYSAADGTELTGTWTMEGNKLVGKFKRVDNGKELIAVREISGNELIQTYTYEGVEAKRIFKKE",
    "Class": "low band"
  },
  {
    "Molecule": "117G, 72A (protein, listed as Rattus norvegicus, PEPTIDE (1)...(131) wild-type rat intestinal fatty acid binding protein) AFDGTWKVDRNENYEKFMEKMGINVVKRKLGAHDNLKLTITQEGNKFTVKESSNFRNIDVVFELGVDFAYSAADGTELTGTWTMEGNKLVGKFKRVDNGKELIAVREISGNELIQTGTYEGVEAKRIFKKE",
    "Class": "middle band"
  },
  {
    "Molecule": "14V 18L 73V 117A 72A (protein, listed as Rattus norvegicus, PEPTIDE (1)...(131) wild-type rat intestinal fatty acid binding protein) AFDGTWKVDRNENVEKFLEKMGINVVKRKLGAHDNLKLTITQEGNKFTVKESSNFRNIDVVFELGVDFAYSAVDGTELTGTWTMEGNKLVGKFKRVDNGKELIAVREISGNELIQTATYEGVEAKRIFKKE",
    "Class": "middle band"
  }
]

GET /class?item= 47C3, L72A (protein, listed as Rattus norvegicus, PEPTIDE (1)...(131) wild-type rat intestinal fatty acid binding protein) AFDGTWKVDRNENYEKFMEKMGINVVKRKLGAHDNLKLTITQEGNKCTVKESSNFRNIDVVFELGVDFAYSAADGTELTGTWTMEGNKLVGKFKRVDNGKELIAVREISGNELIQTYTYEGVEAKRIFKKE low band

Assign a bin to 62C, 72A (protein, listed as Rattus norvegicus, PEPTIDE (1)...(131) wild-type rat intestinal fatty acid binding protein) AFDGTWKVDRNENYEKFMEKMGINVVKRKLGAHDNLKLTITQEGNKFTVKESSNFRNIDVVCELGVDFAYSAADGTELTGTWTMEGNKLVGKFKRVDNGKELIAVREISGNELIQTYTYEGVEAKRIFKKE high band
